Experiment: Aqueous solubility
Type: physicochemical
Details: water; parent drug
readout: solubility

May I ask what solubility has been recorded for C[C@H](NC(=O)[C@@](C)(Cc1c[nH]c2ccccc12)NC(=O)OCc1cc2ccccc2o1)c1ccccc1 [Compound 1, reference compound] ?
< 1 µg/mL

* * *

Experiment: Conversion of prodrug to parent compound 1 after IV dosing (plasma HPLC)
Format: in vivo
Conditions: rat; male Wistar rats, n=3; slow IV bolus about 5 mg/kg parent-equivalent; parent compound 1 in plasma up to 24 h
Counter-ions that a name gives are not always drawn.
Can you tell me metabolised at 24 h for the items I'm about to list?
Answers are plain numbers, in %.

C[C@H](NC(=O)[C@@](C)(Cc1cn(C(=O)OCOC(=O)c2ccc(CN(C)CCN(C)C)cc2)c2ccccc12)NC(=O)OCc1cc2ccccc2o1)c1ccccc1 [Compound 20f, dihydrochloride salt] : 104

For each of the compounds below, note its metabolised at 24 h.
1. C[C@H](NC(=O)[C@@](C)(Cc1cn(C(=O)OCOC(=O)c2ccc(COP(=O)(O)O)cc2)c2ccccc12)NC(=O)OCc1cc2ccccc2o1)c1ccccc1 [Compound 18, disodium salt]
2. C[C@H](NC(=O)[C@@](C)(Cc1cn(P(=O)(O)O)c2ccccc12)NC(=O)OCc1cc2ccccc2o1)c1ccccc1 [Compound 5, disodium salt]
3. C[C@H](NC(=O)[C@@](C)(Cc1cn(C(=O)c2ccccc2COP(=O)(O)O)c2ccccc12)NC(=O)OCc1cc2ccccc2o1)c1ccccc1 [Compound 25, disodium salt]

59.5
11.7
19.9

For each of the compounds below, note its metabolised at 24 h.
1. C[C@H](NC(=O)[C@@](C)(Cc1cn(C(=O)OCOC(=O)c2ccc(CN(C)C)cc2)c2ccccc12)NC(=O)OCc1cc2ccccc2o1)c1ccccc1 [Compound 20a, monohydrochloride salt]
2. C[C@H](NC(=O)[C@@](C)(Cc1cn(C(=O)OCOC(=O)c2ccc(CN3CCN(C)CC3)cc2)c2ccccc12)NC(=O)OCc1cc2ccccc2o1)c1ccccc1 [Compound 20c, dihydrochloride salt]

[86.9, 68]

For each of the compounds below, note its metabolised at 24 h.
1. C[C@H](NC(=O)[C@@](C)(Cc1cn(C(=O)OCOC(=O)c2ccc(CN3CCN(CCO)CC3)cc2)c2ccccc12)NC(=O)OCc1cc2ccccc2o1)c1ccccc1 [Compound 20d, dihydrochloride salt]
2. C[C@H](NC(=O)[C@@](C)(Cc1cn(C(=O)OCOC(=O)c2ccc(CN3CCNCC3)cc2)c2ccccc12)NC(=O)OCc1cc2ccccc2o1)c1ccccc1 [Compound 20e, dihydrochloride salt]

1: 64.2; 2: 88.5
